assay: qHTS for Inhibitors of human tyrosyl-DNA phosphodiesterase 1 (TDP1): qHTS in cells in presence of CPT; conditions: chicken DT40 Tdp1-/-;hTDP1 cells + 20 nM CPT, ATP luminescence, 48 h; series mostly up to 46.2 µM; also: nearly all actives have a fitted effect of over 55% in size; also: potency is read from the fitted curve at half-maximal effect
Among all 420,000 compounds or so, about 50,000 (12%) were called active. Roughly 26% stayed inconclusive and do not appear here. The sample as a whole holds a higher share of actives than the screen did.
reported metric: Potency

Consider the following illustrative entries.
>>> readout_value("Cc1ccc(CNC(=O)Nc2nnc([C@H]3C[C@H](O)[C@@H](CO)O3)s2)cc1")
"inactive"
>>> readout_value("CCOC(=O)CSc1nc(C)cc2c1C(=O)OC2")
"inactive"
>>> readout_value("CCOC(=O)CSC1=N/C(=C/c2ccc(-n3cncn3)cc2)C(=O)N1C(C)=O")
"20.6 µM (active)"
>>> readout_value("CCCC(=O)N1CCC1(C)C(=O)Nc1ccc(-n2cncn2)cc1 (stereo not drawn)")
"inactive"
>>> readout_value("CC1CN(C(=O)CCC(=O)NC2CCN(Cc3ccccc3)CC2)c2ccccc2O1 (stereo not drawn)")
"23.1 µM (active)"

The compound identified as CC(=O)Nc1ccc(S(=O)(=O)N2CCn3cccc3C2C)cc1 (stereo not drawn) registered its Potency at inactive

The compound identified as "COc1ccc(C(=O)OCc2cc(=O)n3ccsc3n2)cc1F" registered its Potency at inactive

The compound identified as "O=C(c1ccncc1)N1CCN(c2ccc3ccccc3n2)CC1" registered its Potency at inactive

The compound identified as "Cc1ccc(N=C2SCCCN2C(=O)c2cccc(N3C(=O)CCC3=O)c2)cc1Cl" registered its Potency at inactive

The compound identified as CC(O)c1nc2ccccc2n1Cc1ccc([N+](=O)[O-])cc1 (stereo not drawn) registered its Potency at inactive

----------
experiment: qHTS for Inhibitors of human tyrosyl-DNA phosphodiesterase 1 (TDP1): qHTS in cells in presence of CPT; conditions: chicken DT40 Tdp1-/-;hTDP1 cells + 20 nM CPT, ATP luminescence, 48 h; series mostly up to 46.2 µM; also: nearly all actives have a fitted effect of over 55% in size
Out of some 420,000 compounds screened, about 50,000 (12%) were called active. Inconclusive results (about 26%) are left out. Calls come from the whole dose curve; as a rule, active = well fitted inhibition curve with a large enough effect; inconclusive = small, poorly fitted or top-dose-only effect; inactive = flat fitted curve, though single readings scatter. This is one part of a sample in which actives are shown more often than they occur.
Your response should consist of one outcome taken from active, inactive

Give the logged outcome of this assay for the following compound: "Cc1ccc(C(=O)COC(=O)c2cccc(N3C(=O)c4c(C)nc5ccccc5c4C3=O)c2)cc1C"
inactive

Give the logged outcome of this assay for the following compound: "O=C(Nc1cccc(-n2cnnn2)c1)c1cccnc1"
inactive

Give the logged outcome of this assay for the following compound: CC1(C)CC(=O)CC2(C1)NCC(c1ccccc1Cl)c1c2[nH]c2ccccc12 (stereo not given)
active

Give the logged outcome of this assay for the following compound: "Cn1cc(/C=C/c2nc3ccccc3c(=O)n2-c2cccc([N+](=O)[O-])c2)c2ccccc21"
inactive

Give the logged outcome of this assay for the following compound: "COc1ccc(-c2cn3nc(N4CCC(C(=O)Nc5cccc(C)c5C)CC4)sc3n2)cc1"
active

Give the logged outcome of this assay for the following compound: "Cc1c(Cl)cnc(NC(=O)COC(=O)C2CCCC2)c1Cl"
inactive

Give the logged outcome of this assay for the following compound: COc1ccc(-c2cn3nc(N4CCCC(C(=O)NCCCOC(C)C)C4)sc3n2)cc1 (stereo not given)
active

Give the logged outcome of this assay for the following compound: "CCCCN(CC)CCCNC(=O)Cn1ncc2c([nH]c3ccc(C)cc32)c1=O"
inactive

Give the logged outcome of this assay for the following compound: "CCn1c(/C=C/c2ccc([N+](=O)[O-])o2)nc2ccccc2c1=O"
active

Give the logged outcome of this assay for the following compound: "Cc1cc(=O)n2nc(N3CCC(C(=O)Nc4c(F)c(F)c(F)c(F)c4F)CC3)sc2n1"
inactive
